SYSTEM: human α7 nicotinic acetylcholine receptor (HEK cell line stably expressing human RIC-3 and human α7) (Homo sapiens, UniProt P36544)
Construct: host or cells: HEK cell line (PrecisION hnAChR α7/RIC-3)
Sequence (P36544 23-502): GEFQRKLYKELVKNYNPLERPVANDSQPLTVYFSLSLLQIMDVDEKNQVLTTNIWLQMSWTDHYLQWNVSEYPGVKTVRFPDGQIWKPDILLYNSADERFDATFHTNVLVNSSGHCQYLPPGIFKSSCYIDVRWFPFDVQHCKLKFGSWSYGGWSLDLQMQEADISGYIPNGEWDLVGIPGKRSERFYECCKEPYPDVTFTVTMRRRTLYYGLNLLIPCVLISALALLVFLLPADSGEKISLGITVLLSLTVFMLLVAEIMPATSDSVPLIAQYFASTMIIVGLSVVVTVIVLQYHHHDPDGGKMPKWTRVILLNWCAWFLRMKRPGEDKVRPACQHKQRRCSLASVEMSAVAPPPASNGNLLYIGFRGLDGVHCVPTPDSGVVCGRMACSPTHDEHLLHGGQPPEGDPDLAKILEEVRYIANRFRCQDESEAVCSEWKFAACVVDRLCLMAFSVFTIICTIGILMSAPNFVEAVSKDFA
METHOD_NOTES: Automated patch-clamp electrophysiology functional assay (Assay A), IonFlux HT, whole-cell population patch
Format: cell-based
CONDITION_SET: automated patch-clamp electrophysiology functional assay (Assay A); read-out: α7 nAChR EC50
OBSERVATION_TYPE: EC50 (nM)

Record excerpt, results attached:
COMPOUND: NS(=O)(=O)N1CCC2(CC1)[C@H](c1noc(-c3cnn4c3CCCC4)n1)C2(F)F [Example E40]
UNIT_INFO: nM
MEAS_VALUE: 840
--
COMPOUND: CC(c1nc([C@@H]2CC23CCN(S(N)(=O)=O)CC3)no1)c1ccccc1Cl (mixture of isomers) [Example E8]
UNIT_INFO: nM
MEAS_VALUE: 3900
--
COMPOUND: NS(=O)(=O)N1CCC2(CC1)C[C@H]2c1noc(-c2ccc(F)cc2C(F)(F)F)n1 [Example D16]
UNIT_INFO: nM
MEAS_VALUE: 160
--
COMPOUND: COc1ccc(Cl)cc1-c1nc(C2CC23CCN(S(C)(=O)=O)CC3)no1 (racemic) [Example J1]
UNIT_INFO: nM
MEAS_VALUE: 760

1. NS(=O)(=O)N1CCC2(CC2c2nc(-c3cccc(OC(F)F)c3)no2)C(F)C1 (single isomer, unassigned) [Example I1]
2. NS(=O)(=O)N1CCC2(CC1)CC2c1nc(-c2c(C(F)(F)F)noc2C2CC2)no1 (centres unmarked) [Example C12]
Could you check which of 1 and 2 has a smaller value for EC50? Selection: enter the item's label.
2
(2: 170 nM, 1: 750 nM)

a. NS(=O)(=O)N1CCC2(CC1)C[C@H]2c1noc(-c2ccccc2OCC(F)(F)F)n1 [Example D18]
b. NS(=O)(=O)N1CCC2(CC1)[C@@H](c1nc(-c3cccc(F)c3)no1)C2(F)F [Example H4]
Could you check which of a and b has a smaller value for EC50? Selection: enter the item's label.
a

----------
SYSTEM: human α7 nicotinic acetylcholine receptor (HEK cell line stably expressing human RIC-3 and human α7) (Homo sapiens, UniProt P36544)
Construct: host or cells: HEK cell line (PrecisION hnAChR α7/RIC-3)
METHOD_NOTES: Automated patch-clamp electrophysiology functional assay (Assay A), IonFlux HT, whole-cell population patch
Format: cell-based
CONDITION_SET: automated patch-clamp electrophysiology functional assay (Assay A); read-out: α7 nAChR EC50
pEC50: −log10 of the molar value.
OBSERVATION_TYPE: pEC50

COMPOUND: Cc1cn(C2CC2)c2ccc(-c3nc([C@@H]4CC45CCN(S(N)(=O)=O)CC5)no3)cc12 [Example E1]
pEC50: 6.51

1. Cc1cnn(C)c1-c1nc([C@@H]2CC23CCN(S(N)(=O)=O)CC3)no1 [Example E52]
2. Cc1cn(C2CC2)nc1-c1nc([C@@H]2C(F)(F)C23CCN(S(N)(=O)=O)CC3)no1 [Example 25]
3. NS(=O)(=O)N1CCC2(CC1)C[C@H]2c1noc(-c2cc(Cl)ccc2OC(F)(F)F)n1 [Example D22]
Thanks in advance: please rank these 3 entries by pEC50, highest to lowest. Answer format: list of labels, ordered as asked.
2, 3, 1
(2: 6.68, 3: 6.39, 1: 5.77)

----------
SYSTEM: human α7 nicotinic acetylcholine receptor (HEK cell line stably expressing human RIC-3 and human α7) (Homo sapiens, UniProt P36544)
Construct: host or cells: HEK cell line (PrecisION hnAChR α7/RIC-3)
METHOD_NOTES: Automated patch-clamp electrophysiology functional assay (Assay A), IonFlux HT, whole-cell population patch
Assay type: cell-based
CONDITION_SET: automated patch-clamp electrophysiology functional assay (Assay A); read-out: α7 nAChR EC50
pEC50: −log10 of the molar value.
OBSERVATION_TYPE: pEC50

COMPOUND: Cc1ccccc1-c1nnc([C@@H]2CC23CCN(S(N)(=O)=O)CC3)s1
pEC50: 6.12

COMPOUND: Cc1cnn(CC(F)(F)F)c1-c1nc([C@@H]2CC23CCN(S(N)(=O)=O)CC3)no1
pEC50: 6.64

P. CC1CCCC(c2nc([C@@H]3CC34CCN(S(N)(=O)=O)CC4)no2)C1 (mixture of isomers)
Q. NS(=O)(=O)N1CCC2(CC1)C[C@H]2c1noc(C2CCc3c(F)cccc32)n1 (mixture of isomers)
Which one would you say has the larger pEC50 value: P , or Q ? Selection: enter the item's label.
Q
(Q: 5.89, P: 5.47)

----------
SYSTEM: human α7 nicotinic acetylcholine receptor (HEK cell line stably expressing human RIC-3 and human α7) (Homo sapiens)
Construct: host or cells: HEK cell line (PrecisION hnAChR α7/RIC-3)
METHOD_NOTES: Automated patch-clamp electrophysiology functional assay (Assay A), IonFlux HT, whole-cell population patch
Assay type: cell-based
CONDITION_SET: automated patch-clamp electrophysiology functional assay (Assay A); read-out: α7 nAChR EC50
OBSERVATION_TYPE: EC50 (nM)

Record excerpt, results attached:
COMPOUND: NS(=O)(=O)N1CCC2(CC1)[C@H](c1noc(-c3cc(C(F)(F)F)n(C4CC4)n3)n1)C2(F)F
EC50 [nM]: 510

COMPOUND: NS(=O)(=O)N1CCC2(CC1)C[C@H]2c1noc(-c2ncccc2OCC(F)(F)F)n1
EC50 [nM]: 1200

COMPOUND: Cc1cnn(C)c1-c1nc([C@@H]2C(F)(F)C23CCN(S(N)(=O)=O)CC3)no1
EC50 [nM]: 75

1. NS(=O)(=O)N1CCC2(CC2c2nc(-c3conc3C3CC3)no2)C(F)C1 (single isomer, unassigned) [Example I7]
2. Cc1onc(C2CC2)c1-c1cnc([C@@H]2CC23CCN(S(N)(=O)=O)CC3)o1
Could you check which of 1 and 2 has a smaller value for EC50? Selection: enter the item's label.
2
(2: 120 nM, 1: 1500 nM)

1. Cn1ncc(C(F)(F)F)c1-c1nc([C@@H]2CC23CCN(S(N)(=O)=O)CC3)no1
2. NS(=O)(=O)N1CCC2(CC1)C[C@H]2c1noc(-c2ccccc2)n1
Which one would you say has the larger EC50 value: 1 , or 2 ? Selection: enter the item's label.
2

A. NS(=O)(=O)N1CCC2(C(F)C1)C(c1nc(-c3ccc(F)cc3C(F)(F)F)no1)C2(F)F (centres unmarked) [Example I18]
B. NS(=O)(=O)N1CCC2(CC1)C(c1nc(-c3ccnc(C(F)(F)F)c3)no1)C2(F)F (centres unmarked)
C. NS(=O)(=O)N1CCC2(CC1)C[C@H]2c1nnc(-c2ccc(F)cc2C(F)(F)F)s1
D. NS(=O)(=O)N1CCC2(CC1)[C@H](c1coc(-c3ccc(F)cc3C(F)(F)F)n1)C2(F)F
E. NS(=O)(=O)N1CCC2(CC1)C[C@H]2c1noc(-c2ocnc2C(F)(F)F)n1
Thanks in advance: please rank these 5 entries by EC50, highest to lowest. Answer format: list of labels, ordered as asked.
E, B, C, A, D
(E: 4500 nM, B: 1300 nM, C: 750 nM, A: 320 nM, D: 90 nM)

1. NS(=O)(=O)N1CCC2(CC1)[C@H](c1nnc(-c3ccnn3C3CC3)s1)C2(F)F
2. NS(=O)(=O)N1CCC2(CC1)[C@H](c1ncc(-c3ccc(F)cc3C(F)(F)F)o1)C2(F)F
Which one would you say has the larger EC50 value: 1 , or 2 ? Selection: enter the item's label.
1

----------
SYSTEM: human α7 nicotinic acetylcholine receptor (HEK cell line stably expressing human RIC-3 and human α7) (Homo sapiens)
Construct: host or cells: HEK cell line (PrecisION hnAChR α7/RIC-3)
METHOD_NOTES: Automated patch-clamp electrophysiology functional assay (Assay A), IonFlux HT, whole-cell population patch
Type: cell-based
CONDITION_SET: HEK cells expressing human α7/RIC-3; test compound with or without 40 μM acetylcholine; holding potential −60 mV; room temperature; read-out: α7 nAChR Potency
pEC50: −log10 of the molar value.
OBSERVATION_TYPE: pEC50

COMPOUND: Cn1nc(-c2nc([C@@H]3C(F)(F)C34CCN(S(N)(=O)=O)CC4)no2)c2c1CCC2 [Example E44]
MEAS_VALUE: 6.30 to 7.00

Look at this compound and give its reported pEC50. NS(=O)(=O)N1CCC2(C(F)C1)C(c1nc(-c3conc3C3CC3)no1)C2(F)F (single isomer, unassigned) [Example I14]
6.30 to 7.00

Try NS(=O)(=O)N1CCC2(CC1)C[C@H]2c1noc(-c2cccc(C(F)(F)F)c2)n1 [Example D1] next.
5.30 to 6.30

Try NS(=O)(=O)N1CCC2(CC1)C[C@H]2c1noc(-c2ccc(C(F)(F)F)cc2OC(F)F)n1 [Example D9] next.
5.30 to 6.30

Try NS(=O)(=O)N1CCC2(CC1)C[C@H]2c1noc(-c2ccc(Cl)cc2OC(F)F)n1 [Example D10] next.
> 7.00

Try NS(=O)(=O)N1CCC2(CC1)C[C@H]2c1noc(C2CCCCC23CC3)n1 (mixture of isomers) [Example E11] next.
5.30 to 6.30

Try NS(=O)(=O)N1CCC2(CC1)CC2c1nc(-c2conc2C2CC2)no1 (centres unmarked) [Example C4] next.
5.30 to 6.30

Try COc1ccc(Cl)cc1-c1noc([C@H]2CC23CCN(S(N)(=O)=O)CC3)n1 [Example H1] next.
4.30 to 5.30
